Data provenance is patent US20190033318A1.

# Lookup of reported ΔTm keyed by entry
target: T1, Trx-1α (thioredoxin-tagged HIF-1α 1-350, bHLH-PASA-PASB) (UniProt Q16665 1-350); experiment: thermal shift assay, 1 mM peptide
T1 construct: range 1-350; not shown: Thioredoxin-His6 tag of vector pET32
Give the value, in units of ° C., as a plain number.

Protein	Unit text	ΔTm
SGWEMIQRR (cyclic peptide (first amino acid joined to the last), One of the 4 cyclic peptide hits) [cyclo-SGWEMIQRR (SEQ ID NO 5)]	° C.	-2.5
CRLLIF (cyclic peptide (cyclo-, first amino acid joined to the last), One of the 4 cyclic peptide hits of the SICLOPPS screen; made by solid phase synthesis; also called CRLLIX where X = F) [cyclo-CRLLIF (SEQ ID NO 3)]	° C.	0.5
CKLIIF (cyclic peptide (first amino acid joined to the last)) [cyclo-CKLIIF (SEQ ID NO 2)]	° C.	-1.5

The record that follows has no ΔTm shown yet.
Consider the protein CRVIIF (cyclic peptide (cyclo-, first amino acid joined to the last), also called Compound C) [cyclo-CRVIIF (SEQ ID NO 4)] and give its recorded ΔTm.
-1
